# target_of_assay: T1, human CD33 Fc fusion protein (human, UniProt P20138 18-259)
# T1 construct: also called hCD33-Fc; human CD33/Fc chimera (R&D Systems)
# assay_overview: RBC adhesion to plate-bound CD33-Fc; antibody 1.0 ug/ml;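 also: red blood cells adhering to plate-coated CD33-Fc after 1 h antibody pretreatment, then 1 h at room temperature, bound cells read as peroxidase activity after lysis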
Here the recorded Percent RBC Binding to CD33 is given for each entry.

{"binder": "C-88 (antibody, V domains shown, human IgG1) VH: QLQLQESGPGLVKPSETLSLTCTVSGGSISSSSYYWGWIRQPPGKGLEWIGSIYYSGSTYYNPSLKSRVTISVDTSKNQFSLKLSSVTAADTAVYYCARLPIYYDSSGYFDYHGMDVWGQGTTVTVSS VL: EIVLTQSPATLSLSPGERATLSCRASQSVSSYLAWYQQKPGQAPRLLIYDASNRATGIPARFSGSGSGTDFTLTISSLEPEDFAVYYCQQHANHPPTFGGGTKVEIK", "units_label": "%", "Percent RBC Binding to CD33": 10.9}
{"binder": "C-90 (antibody, V domains shown, human IgG1) VH: EVQLVESGGGLVQPGGSLRLSCAASGFTFSSYWMSWVRQAPGKGLEWVANINQDGSEKYYVDSVKGRFTISRDNAKNSLYLQMNSLRAEDTAVYYCAREAGAVTGYRWFDPWGQGTLVTVSS VL: DIQMTQSPSSLSASVGDRVTITCRASQSISSYLNWYQQKPGKAPKLLIYGASSLQSGVPSRFSGSGSGTDFTLTISSLQPEDFATYYCQQQYLTPLTFGGGTKVEIK", "units_label": "%", "Percent RBC Binding to CD33": 6.8}
{"binder": "C-73 (antibody, V domains shown, human IgG1) VH: QVQLVESGGGVVQPGRSLRLSCAASGFTFSSYGMHWVRQAPGKGLEWVAVIWYDGSNKYYADSVKGRFTISRDNSKNTLYLQMNSLRAEDTAVYYCARGTNAYGTPRDFDLWGRGTLVTVSS VL: DIQMTQSPSSLSASVGDRVTITCRASQSISSYLNWYQQKPGKAPKLLIYAASSLQSGVPSRFSGSGSGTDFTLTISSLQPEDFATYYCQQLSDTPITFGGGTKVEIK", "units_label": "%", "Percent RBC Binding to CD33": 13.7}
{"binder": "C-91 (antibody, V domains shown, human IgG1) VH: EVQLVESGGGLVQPGGSLRLSCAASGFTFSSYWMSWVRQAPGKGLEWVANIKSDGSEKYYVDSVKGRFTISRDNAKNSLYLQMNSLRAEDTAVYYCARDVGGDYSGSDLASYWGQGTLVTVSS VL: DIQMTQSPSSLSASVGDRVTITCRASQSISSYLNWYQQKPGKAPKLLIYAASSLQSGVPSRFSGSGSGTDFTLTISSLQPEDFATYYCQQGYDPPLTFGGGTKVEIK", "units_label": "%", "Percent RBC Binding to CD33": 7}
{"binder": "C-72 (antibody, V domains shown, human IgG1) VH: QVQLVESGGGVVQPGRSLRLSCAASGFTFSSYGMHWVRQAPGKGLEWVAVIWYDGSNKYYADSVKGRFTISRDNSKNTLYLQMNSLRAEDTAVYYCAKEGGTYSDDFDLWGGGTLVTVSS VL: DIQMTQSPSSVSASVGDRVTITCRASQGISSWLAWYQQKPGKAPKLLIYAASSLQSGVPSRFSGSGSGTDFTLTISSLQPEDFATYYCQQASSFPLTFGGGTKVEIK", "units_label": "%", "Percent RBC Binding to CD33": 18.9}
